- experimental-system: Kv7.2 (Homo sapiens, UniProt O43526)
- assay-comment: Activation of Kv7.2 (in vitro assay, concentration response curve)
- assay-conditions: activation of Kv7.2
pEC50: −log10 of the molar value.
# label = condition met if pEC50 >= 6 else condition not met

> print(dat)
                                    compound     assigned.label
 1  O=C(NCc1ccnc(CC(F)(F)F)c1)N[C@H]1CCC[C@@H](C(F)(F)F)C1 (racemic) [Example 276]      condition met
 2  O=C(NCc1ccnc(OC(F)F)c1)NC12CCC(C(F)(F)F)(CC1)CC2 [Example 68]  condition not met
 3  O=C(NCc1ccnc(OC(F)F)c1)N[C@@H]1C[C@H]2CC[C@@H]1O2 (racemic) [Example 102]  condition not met
 4  C[C@H](F)COc1cc(CNC(=O)NC23CCC(F)(CC2)CC3)ccn1 [Example 156]      condition met
 5  O=C(NCc1ccnc(OCC(F)(F)F)c1)N[C@H]1C[C@H](C(F)(F)F)C1 [Example 179]      condition met
 6  O=C(NCc1ccnc(OC(F)F)c1)NC1CCC(F)(F)C1 (centres unmarked) [Example 93]      condition met
 7  O=C(NCc1ccnc(OCC(F)CF)c1)N[C@H]1CC[C@@H](C(F)(F)F)C1 (mixture of isomers) [Example 225]      condition met
 8  O=C(NC(CO)c1ccnc(OC(F)F)c1)NC12CCC(F)(CC1)CC2 (centres unmarked) [Example 85]      condition met
 9  O=C(NCc1ccnc(OC(F)F)c1)NC1CC2C(C1)C2(F)F (racemic) [Example 74]      condition met
10  O=C(NCc1ccnc(OC(F)F)c1)N[C@H]1[C@@H]2CC(F)(F)C[C@@H]21 [Example 271]      condition met
11  O=C(NCc1ccnc(OC(F)F)c1)N[C@@H]1CC[C@@H]1C(F)(F)F (racemic) [Example 255]  condition not met
12  O=C(NCc1ccnc(OC(F)F)c1)NC1CCCC1 [Example 20]      condition met
13  O=C(NCc1ccnc(OCC(F)(F)F)c1)N[C@@H]1C[C@@H]2[C@H](C1)C2(F)F [Example 238]      condition met
14  O=C(NCc1ccnc(OC2CC(F)(F)C2)c1)N[C@H]1C[C@H](C(F)(F)F)C1 [Example 209]      condition met
15  O=C(Nc1cccc(Cl)c1F)NC(CO)c1ccnc(OC(F)F)c1 (centres unmarked) [Example 270]      condition met
16  O=C(NCc1ccnc(SC(F)F)c1)N[C@H]1C[C@H](C(F)(F)F)C1 [Example 260]      condition met
17  N#Cc1cc(CNC(=O)N[C@H]2C[C@@H]3CC[C@H]2C3)ccn1 (racemic) [Example 34]  condition not met
18  CC1(C)CC(NC(=O)NCc2ccnc(OC(F)F)c2)C1 [Example 188]      condition met
19  O=C(NCc1ccnc(OC(F)F)c1)N[C@@H]1CCC(F)(F)C1 [Example 115]      condition met
20  CC1CCCC(C)C1NC(=O)NCc1ccnc(OC(F)F)c1 (centres unmarked) [Example 25]      condition met
21  CC(F)COc1cc(CNC(=O)NC23CC(F)(C2)C3)ccn1 (centres unmarked) [Example 160]  condition not met
22  O=C(NCc1ccnc(OCC(F)(F)F)c1)NCC1(F)CCC1 [Example 210]      condition met
23  O=C(NCc1ccnc(OC(F)F)c1)N[C@H]1C[C@@H](OC(F)F)C1 [Example 265]      condition met
24  O=C(Nc1cc(F)cc(F)c1)NC(CO)c1ccnc(OCC(F)(F)F)c1 (centres unmarked) [Example 256]      condition met
25  O=C(NCc1ccnc(OC(F)F)c1)N[C@@H]1CC[C@H](C(F)F)C1 (racemic) [Example 193]      condition met
26  C[C@]1(O)CCCC[C@@H]1NC(=O)NCc1ccnc(OC(F)F)c1 (racemic) [Example 148]  condition not met
27  O=C(NCc1ccnc(OC(F)F)c1)N[C@H]1C[C@H]2CCC[C@H]2C1 [Example 105]      condition met

====

- experimental-system: Kv7.2 (Homo sapiens, UniProt O43526)
- Construct: expressed in transfected cells
- assay-comment: Activation of Kv7.2 (in vitro assay, concentration response curve)
- Type: cell-based
- assay-conditions: Kv7.2 activation max %
Binned Emax; ranges: low bin = under 50%, mid bin = from 50% up to 60%, high bin = 60% and over

> print(dat)
                                    compound  assigned.label
 1  O=C(NCc1ccnc(-n2cnc(C(F)(F)F)c2)c1)NCC1CCC1         low bin
 2  C[C@H]1C[C@H](NC(=O)NCc2ccnc(OC(F)F)c2)C1        high bin
 3      O=C(NCc1ccnc(OC(F)F)c1)Nc1nccc(Cl)n1        high bin
 4  O=C(NCc1ccnc(OC(F)F)c1)N[C@@H]1C[C@H]2C[C@@H]1C(F)(F)C2 (racemic)        high bin
 5  O=C(NCc1ccnc(OCC(F)(F)F)n1)N[C@H]1C[C@H](C(F)(F)F)C1         low bin
 6  O=C(NCc1ccnc(OC(F)F)c1)NC1(CC(F)(F)F)CC1         low bin
 7  O=C(NCc1ccnc(OC(F)F)c1)NCC(C(F)(F)F)C(F)(F)F        high bin
 8  O=C(NCc1ccnc(-n2cccn2)c1)N[C@H]1C[C@@H]2CC[C@H]1C2        high bin
 9  O=C(NCc1ccnc(OC(F)F)c1)N[C@@H]1CC[C@H]2CCC[C@H]21        high bin
10  C[C@@H](F)COc1cc(CNC(=O)N[C@H]2C[C@H](C(F)(F)F)C2)ccn1         mid bin
11  O=C(NCc1ccnc(OC(F)F)c1)NC1(C2CC(F)(F)C2)CC1         low bin
12  O=C(NCc1ccnc(OC(F)F)c1)NCC1CC(C(F)(F)F)C1 (stereo not shown)         low bin
13  O=C(NC(CCO)c1ccnc(OC(F)F)c1)N[C@H]1C[C@H](C(F)(F)F)C1 (stereo partly shown)        high bin
14  O=C(NCc1ccnc(OC(F)F)c1)NC12CCC(C(F)(F)F)(CC1)CC2        high bin
15   O=C(NCc1ccnc(OCC(F)F)c1)NC12CC(F)(C1)C2         low bin
16  O=C(NCc1ccnc(OC(F)F)c1)N[C@H]1CC[C@](O)(C(F)(F)F)C1 (racemic)         low bin
17      O=C(NCc1ccnc(OC(F)F)c1)Nc1cccc(Cl)n1         low bin
18  O=C(NCc1ccnc(OC(F)F)c1)N[C@H]1CCCC(F)(F)C1         low bin
19  O=C(NCc1ccnc(C(F)(F)F)c1)N[C@H]1C[C@@H]2CC[C@H]1C2 (racemic)        high bin
20  O=C(NCc1ccnc(OC(F)F)c1)N[C@H]1CCC[C@H]1O (racemic)        high bin
21  O=C(NCc1ccnc(-n2cccn2)c1)N[C@@H]1C[C@H]2CC[C@@H]1C2 [Example 16]        high bin
22    O=C(NCc1ccnc(OC(F)F)c1)NC1CCC(F)(F)CC1        high bin
23           O=C(NCc1ccnc(OC(F)F)c1)NC1CCCC1         mid bin
24  O=C(NCc1ccnc(OC(F)F)c1)N[C@H]1C[C@H](F)C1         mid bin
25            O=C(NCc1ccnc(OC(F)F)c1)NC1CCC1        high bin
26  O=C(NCc1ccnc(-n2cccn2)c1)N[C@@H]1C[C@H]2CC[C@@H]1C2 (racemic) [Example 7]        high bin
27         CC(C)(F)CNC(=O)NCc1ccnc(OC(F)F)c1         mid bin
28  C[C@@H](O)C(NC(=O)N[C@H]1C[C@H](C(F)(F)F)C1)c1ccnc(OC(F)F)c1 (stereo partly shown)        high bin
29  C[C@H](O)C(NC(=O)N[C@H]1C[C@H](C(F)(F)F)C1)c1ccnc(OC(F)F)c1 (stereo partly shown)        high bin
30       Cc1cccc(NC(=O)NCc2ccnc(OC(F)F)c2)n1         mid bin
31       O=C(NCc1ccnc(OC(F)F)c1)NC12CC(C1)C2        high bin
32      O=C(NCc1ccnc(OC(F)F)c1)Nc1cccc(CF)c1         low bin

====

- experimental-system: UniProt:O43526
- assay-comment: Activation of Kv7.2 (in vitro assay, concentration response curve)
- assay-conditions: activation of Kv7.2
pEC50: −log10 of the molar value.
# label = Satisfied if pEC50 >= 6 else Not satisfied

> print(dat)
                                   compound  assigned.label
1  O=C(NCc1ccnc(OC(F)F)c1)N[C@H]1C[C@H]2CCC[C@@]2(CO)C1 (racemic)   Not satisfied
2  O=C(NCc1ccnc(OC(F)F)c1)N[C@@H]1CC[C@@H](C(F)(F)F)C1 (single isomer, unassigned)       Satisfied
3  O=C(Nc1ccc(F)c(F)c1)NC(CO)c1ccnc(OC(F)F)c1 (centres unmarked)       Satisfied
4  O=C(Nc1cccc(Cl)c1)NC(CO)c1ccnc(OCC(F)(F)F)c1 (centres unmarked)       Satisfied
5  O=C(NCc1ccnc(OCC(F)CF)c1)Nc1cccc(Cl)c1 (centres unmarked)       Satisfied
